test system: MFE-296 (Endometrial Carcinoma); test: combination Emax (second highest fraction inhibited in the dose matrix, 72 h); higher = more inhibition; extreme values may be limits of the assay
combination Emax values for the compounds below.
Number, no unit, nothing else.

Query CN(CCO)CC[C@H](CSc1ccccc1)Nc1ccc(S(=O)(=O)NC(=O)c2ccc(N3CCC([C@@H](O)c4ccccc4-c4ccc(Cl)cc4)CC3)cc2)cc1S(=O)(=O)C(F)(F)F [AZD4320] + C[C@@H](Nc1cc(F)cc(F)c1)c1cc(C(=O)N(C)C)cc2c(=O)cc(N3CCOCC3)oc12 [AZD8186] (first compound max 1 µM, 7x7, partner max 3 µM) yields combination Emax of 0.306

Query Cc1cc2ncnn2cc1Nc1ncc2c(n1)n(C1CCOCC1)c(=O)n2C [AZD7648] + C[C@@H]1COCCN1C2=NC(=NC(=C2)C3(CC3)[S@](=N)(=O)C)C4=C5C=CNC5=NC=C4 [AZD6738] (first compound max 10 µM, 7x7, partner max 10 µM) yields combination Emax of 0.33

Query CN(CCO)CC[C@H](CSc1ccccc1)Nc1ccc(S(=O)(=O)NC(=O)c2ccc(N3CCC([C@@H](O)c4ccccc4-c4ccc(Cl)cc4)CC3)cc2)cc1S(=O)(=O)C(F)(F)F [AZD4320] + C=CCn1c(=O)c2cnc(Nc3ccc(N4CCN(C)CC4)cc3)nc2n1-c1cccc(C(C)(C)O)n1 [AZD1775] (first compound max 1 µM, partner max 1 µM) yields combination Emax of 0.273

Query C[C@@H](c1ccc2nccn2c1)n1nnc2ncc(-c3cnn(C)c3)nc21 [Savolitinib] + CC1(C)CCC(CN2CCN(c3ccc(C(=O)NS(=O)(=O)c4ccc(NCC5CCOCC5)c([N+](=O)[O-])c4)c(Oc4cnc5[nH]ccc5c4)c3)CC2)=C(c2ccc(Cl)cc2)C1 [Venetoclax] (first compound max 1 µM, 7x7, partner max 1 µM) yields combination Emax of 0.0764

Query COc1cccc(OCCCN)c1-c1cc(Nc2cnc(C#N)cn2)n[nH]1 [Prexasertib] + C=CCn1c(=O)c2cnc(Nc3ccc(N4CCN(C)CC4)cc3)nc2n1-c1cccc(C(C)(C)O)n1 [AZD1775] (first compound max 1 µM, partner max 1 µM) yields combination Emax of 0.644

Query COc1cc2c(cc1OCCCCCOc1cc3c(cc1OC)C(=O)N1C=C(C)C[C@H]1C=N3)N=C[C@@H]1CC(C)=CN1C2=O [SG3199] + O=C(c1cc(Cc2n[nH]c(=O)c3ccccc23)ccc1F)N1CCN(C(=O)C2CC2)CC1 [Olaparib] (first compound max 0.001 µM, 7x7, partner max 10 µM) yields combination Emax of 0.0449

Query Cc1nc(Nc2ncc(C(=O)Nc3c(C)cccc3Cl)s2)cc(N2CCN(CCO)CC2)n1 [Dasatinib] + CC(=O)Nc1cccc(-n2c(=O)n(C3CC3)c(=O)c3c(Nc4ccc(I)cc4F)n(C)c(=O)c(C)c32)c1 [Trametinib] (first compound max 2 µM, 7x7, partner max 1 µM) yields combination Emax of 0.224

Query CN(CCO)CC[C@H](CSc1ccccc1)Nc1ccc(S(=O)(=O)NC(=O)c2ccc(N3CCC([C@@H](O)c4ccccc4-c4ccc(Cl)cc4)CC3)cc2)cc1S(=O)(=O)C(F)(F)F [AZD4320] + CCN(CCO)CCCOc1ccc2c(Nc3cc(CC(=O)Nc4cccc(F)c4)[nH]n3)ncnc2c1 [AZD2811] (first compound max 1 µM, 7x7, partner max 1 µM) yields combination Emax of 0.11

Query COc1nnc2ccc(N3CCC(c4ccc(OCCN5CCN(C)C(=O)[C@H]5C)cc4)CC3)nn12 [AZD5153] + C[C@@H]1COCCN1C2=NC(=NC(=C2)C3(CC3)[S@](=N)(=O)C)C4=C5C=CNC5=NC=C4 [AZD6738] (first compound max 1 µM, 7x7, partner max 10 µM) yields combination Emax of 0.74

Query CC1(C)CCC(CN2CCN(c3ccc(C(=O)NS(=O)(=O)c4ccc(NCC5CCOCC5)c([N+](=O)[O-])c4)c(Oc4cnc5[nH]ccc5c4)c3)CC2)=C(c2ccc(Cl)cc2)C1 [Venetoclax] + COc1cc(Nc2ncc3c(n2)-c2ccc(Cl)cc2C(c2c(F)cccc2OC)=NC3)ccc1C(=O)O [Alisertib] (first compound max 1 µM, 7x7, partner max 10 µM) yields combination Emax of 0.225

Query COc1nnc2ccc(N3CCC(c4ccc(OCCN5CCN(C)C(=O)[C@H]5C)cc4)CC3)nn12 [AZD5153] + Cn1cnc2c(F)c(Nc3ccc(Br)cc3Cl)c(C(=O)NOCCO)cc21 [Selumetinib] (first compound max 1 µM, 7x7, partner max 10 µM) yields combination Emax of 0.356

Query CCN(CCO)CCCOc1ccc2c(Nc3cc(CC(=O)Nc4cccc(F)c4)[nH]n3)ncnc2c1 [AZD2811] + O=C(c1cc(Cc2n[nH]c(=O)c3ccccc23)ccc1F)N1CCN(C(=O)C2CC2)CC1 [Olaparib] (first compound max 1 µM, 7x7, partner max 10 µM) yields combination Emax of 0.211

Query Cc1c2c(nn1C)CSCc1cc(n(C)n1)CSc1cc(c3ccccc3c1)OCCCc1c(C(=O)O)n(C)c3c-2c(Cl)ccc13 [AZD5991] + Cn1cnc2c(F)c(Nc3ccc(Br)cc3Cl)c(C(=O)NOCCO)cc21 [Selumetinib] (first compound max 1 µM, 7x7, partner max 3 µM) yields combination Emax of 0.256
